tested on: Bax degradation activity; assay: cell-free Bax degradation assay, inhibitor added to MCF-7 cell extract; format: biochemical, human; details: 10-minute preincubation of MCF-7 cell extract with inhibitor (100 mM per FIG. 9C legend), 37° C., 4 h
Where a SMILES comes first, the peptide text is derived from it. [ ]: non-standard residue; d: D form. The star is where a group is joined. Nle = CCCC[C@H](N)C(=O)O; Nva = CCC[C@H](N)C(=O)O; Cbz = O=C(OCc1ccccc1)*
REPORTED METRIC: Bax degradation process/activity

>  <COMPOUND>
CSCCC(C=O)NC(=O)C(CC(C)C)NC(=O)C(CC(C)C)NC(C)=O (stereo not drawn) [LLM] (Ac-Leu-Leu-Met-aldehyde; configuration not given here)

>  <Bax degradation process/activity>
not

$$$$
>  <COMPOUND>
CC(=O)N[C@@H](Cc1ccc(O)cc1)C(=O)N[C@H](C(=O)N[C@@H](C)C(=O)N[C@@H](CC(=O)O)C(=O)CCl)C(C)C

>  <Bax degradation process/activity>
not inhibited

$$$$
>  <COMPOUND>
CC(C)[C@H](O)[C@@]12NC(=O)[C@H](C)[C@@H]1OC2=O

>  <Bax degradation process/activity>
blocked

$$$$
>  <COMPOUND>
CCCC[C@@H](C=O)NC(=O)[C@H](CC(C)C)NC(=O)[C@H](CC(C)C)NC(C)=O [LLnL] (Ac-Leu-Leu-[Nle]-aldehyde)

>  <Bax degradation process/activity>
blocked

$$$$
>  <COMPOUND>
CC(C)C[C@@H](C=O)NC(=O)[C@H](CC(C)C)NC(=O)[C@H](CC(C)C)NC(=O)OCc1ccccc1 [LLL] (Cbz-Leu-Leu-Leu-aldehyde)

>  <Bax degradation process/activity>
blocked

$$$$
>  <COMPOUND>
O=S(=O)(F)Cc1ccccc1 [phenylmethylsulfonyl fluoride]

>  <Bax degradation process/activity>
not inhibited

$$$$
>  <COMPOUND>
N=C(N)c1ccccc1

>  <Bax degradation process/activity>
not inhibited

$$$$
>  <COMPOUND>
CC(=O)N[C@@H](CC(=O)O)C(=O)N[C@@H](CCC(=O)O)C(=O)N[C@H](C(=O)N[C@@H](CC(=O)O)C(=O)CF)C(C)C

>  <Bax degradation process/activity>
not inhibited

$$$$

Batch lookup, Bax degradation process/activity per entry.
1. CC(=O)N[C@@H](CC(C)C)C(=O)N[C@@H](CC(C)C)C(=O)N[C@H](C=O)CCCNC(=N)N
2. CCN1C(=O)C=CC1=O [N-ethylmaleimide]
3. CC(=O)N[C@@H](CSC(=O)[C@]1([C@@H](O)C(C)C)NC(=O)[C@H](C)[C@@H]1O)C(=O)O
4. CCC[C@@H](C=O)NC(=O)[C@H](CC(C)C)NC(=O)[C@H](CC(C)C)NC(=O)OCc1ccccc1 [LLnV] (Cbz-Leu-Leu-[Nva]-aldehyde)

1. not inhibited
2. not inhibited
3. not
4. blocked

src = patent US6692927B2
